TEST TARGET: Torsin-1A (Homo sapiens) (UniProt O14656)
Sequence (O14656 whole entry, looked up): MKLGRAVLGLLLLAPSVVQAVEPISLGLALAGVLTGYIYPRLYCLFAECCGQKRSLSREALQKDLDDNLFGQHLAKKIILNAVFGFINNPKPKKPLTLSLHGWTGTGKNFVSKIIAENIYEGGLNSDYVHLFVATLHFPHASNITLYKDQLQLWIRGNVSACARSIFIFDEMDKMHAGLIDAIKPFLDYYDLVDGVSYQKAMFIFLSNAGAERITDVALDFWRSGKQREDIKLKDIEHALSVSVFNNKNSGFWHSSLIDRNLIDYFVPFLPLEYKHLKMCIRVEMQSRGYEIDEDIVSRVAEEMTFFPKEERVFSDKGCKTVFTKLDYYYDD
PROTOCOL: torsin A binders from cell lysate, primary screen, small-molecule microarray, wild-type, 635/667 nm (AID 1149)
DETAILS: COS7 hTOR1A-WT lysate, 635 nm fluorescence, higher = more signal
# cutoff 0.2 applies to composite z-score; >= gives y, < gives n

{"COMPOUND": "CCCCCCCCCCC(O)C1C=CC2C(=O)N(c3ccccc3)C(=O)C2N1Nc1ccccc1F (stereo unspecified)", "GROUP LABEL": "n"}
{"COMPOUND": "CCOC(=O)C[C@H]1[C@H](OC(=O)c2ccc(-c3ccccc3)cc2)[C@@H](NC(=O)Cc2ccc(OC)cc2)c2cc(OCCCO)ccc2N1C(=O)Cc1ccc(OC)cc1", "GROUP LABEL": "n"}
{"COMPOUND": "O=C1c2ccccc2[C@](Cc2ccccc2I)(C(=O)NC2CC2)[C@H](c2ccc(CO)cc2)N1Cc1ccccc1C(F)(F)F", "GROUP LABEL": "n"}
{"COMPOUND": "COCCOC(=O)N1C(=O)[C@@]2(c3cc(C#CCNC(N)=O)ccc31)[C@H](c1ccc(O)cc1)N1[C@H](c3ccccc3)[C@H](c3ccccc3)OC(=O)[C@H]1[C@@H]2C(=O)N1CCN(c2ncccn2)CC1", "GROUP LABEL": "y"}
{"COMPOUND": "CC(C)[C@H]1NC(=O)[C@@]23C(=O)N[C@@H](Cc4ccccc4)C2[C@H](C)[C@@]2(C)O[C@H]2C3/C=C/C/C=C\\CNC(=O)[C@H](Cc2ccccc2)NC1=O (stereo partly specified)", "GROUP LABEL": "y"}

----------
Tested on: Fibrinogen (Alexa647-labelled)
PROTOCOL: fibrinogen binders on compound microarrays, profiling panel, artefact control for SMM control-protein annotation, biochemical, small-molecule microarray, 635/667 nm fluorescence (AID 1131);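 further: z-score merges 667 nm fluorescence with per-spot signal-to-noise over triplicate slides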
DETAILS: fibrinogen-A647 binding fluorescence, higher = more signal
composite z-score values for the compounds below.

{"SMILES": "O=c1cccc(-c2ccc(F)cc2)o1", "TEST TARGET": "Fibrinogen (Alexa647-labelled)", "composite z-score": -0.191}
{"SMILES": "COc1ccc([Si](C)(C)[C@H]2[C@H](CCO)O[C@@]3(C(=O)N(Cc4ccc(N5C(=O)c6ccccc6Oc6ccccc65)cc4)c4ccccc43)[C@@H]2C)cc1", "TEST TARGET": "Fibrinogen (Alexa647-labelled)", "composite z-score": 0.348}
{"SMILES": "COC(=O)[C@@]1(Cc2ccccc2)[C@H]2c3cc(C(=O)N(C)C)n(CCn4cc([N+](=O)[O-])nc4C)c3C[C@H]2CN1C(=O)c1ccccc1", "TEST TARGET": "Fibrinogen (Alexa647-labelled)", "composite z-score": 0.989}
{"SMILES": "COCCCNC(=O)[C@@H]1c2ccccc2C(=O)N(C2Cc3ccccc3C2)[C@H]1c1ccc(CO)cc1", "TEST TARGET": "Fibrinogen (Alexa647-labelled)", "composite z-score": -0.284}

----------
PROTOCOL: S. cerevisiae growth modulation with rapamycin, primary screen, strain BY4716, OD600, 96 h (AID 1091); further: test concentration not given here
DETAILS: called active from +8 up or from −8 down
Activity calls are given as the source filed them.
Labels: 1 (yes) = active, 0 (no) = inactive

{"MOLECULE": "COC(=O)[C@@]1(Cc2ccccc2)[C@H]2c3cc(C(=O)N4CCCC4)n(CCSCCO)c3C[C@H]2CN1C(=O)c1ccccc1", "GROUP LABEL": "0 (no)"}
{"MOLECULE": "O=C1C2C=CC(C(O)c3ccco3)N(Nc3ccccc3)C2C(=O)N1c1ccccc1 (stereo not given)", "GROUP LABEL": "0 (no)"}
{"MOLECULE": "Cc1ccc(F)cc1S(=O)(=O)N[C@@H]1CCN(Cc2cccc3[nH]ccc23)C1", "GROUP LABEL": "0 (no)"}
{"MOLECULE": "C[C@]1(C(=O)NCCN2CCOCC2)c2ccccc2C(=O)N(Cc2cc(F)cc(C(F)(F)F)c2)[C@H]1c1ccc(CO)cc1", "GROUP LABEL": "0 (no)"}
{"MOLECULE": "COc1ccc([Si](C)(C)[C@H]2[C@H](CCO)O[C@@]3(C(=O)N(Cc4ccccc4)c4ccc(N5CCOC5=O)cc43)[C@@H]2C)cc1", "GROUP LABEL": "1 (yes)"}
{"MOLECULE": "CCOC(=O)C[C@H]1[C@H](OC(=O)c2cc3ccccc3oc2=O)[C@@H](NC(=O)c2ccc3ccccc3c2)c2cc(OCCCO)ccc2N1C(=O)Cc1ccc(OC)cc1", "GROUP LABEL": "0 (no)"}
{"MOLECULE": "CCOC(=O)C1=C[C@@H](C(C)(C)C)N(S(=O)(=O)c2ccc(C)cc2)[C@H]1c1ccccc1", "GROUP LABEL": "0 (no)"}
{"MOLECULE": "C=C(COC)C(=O)CC[C@H](OC(C)=O)c1ccc(OCCO)cc1", "GROUP LABEL": "0 (no)"}
{"MOLECULE": "O=C(O)[C@@H]1C[C@@H]2C(=O)N3CCC[C@H]3C(=O)N2[C@@H]1c1cccc(OCCO)c1", "GROUP LABEL": "0 (no)"}
{"MOLECULE": "O=C1OCC=C[C@H]2OC34C=CCN(c5ccc6ccccc6c5)C(=O)[C@H]3N(CCCCCO)C(=O)[C@@H]4[C@@H]12 (stereo not given in full)", "GROUP LABEL": "0 (no)"}
{"MOLECULE": "C=CCNC(=O)[C@@H]1[C@H]2C(=O)O[C@H](c3ccccc3)[C@H](c3ccccc3)N2[C@H](c2ccc(OCCO)cc2)[C@@]12C(=O)N(C(=O)OCCOC)c1ccc(C#CCCO)cc12", "GROUP LABEL": "0 (no)"}
{"MOLECULE": "CN1C(=O)C2C=CC(C(O)c3cc(C(F)(F)F)cc(C(F)(F)F)c3)N(NC(=O)OC(C)(C)C)C2C1=O (stereo not given)", "GROUP LABEL": "0 (no)"}
{"MOLECULE": "CCOC(=O)C[C@H]1[C@H](OC(=O)c2ccc(-c3ccccc3)cc2)[C@@H](NC(=O)CC(C)C)c2cc(OCCCO)ccc2N1C(=O)c1ccccc1", "GROUP LABEL": "0 (no)"}
{"MOLECULE": "C=C(/C(=C/C[C@@H](OC(C)=O)c1ccc(OCCO)cc1)c1cc(C(=O)OC)ccc1OC)C(C)C", "GROUP LABEL": "0 (no)"}
{"MOLECULE": "COc1ccc(C#Cc2ccc3c(c2)[C@]2(C(=O)N3)[C@H](C(=O)N3CCCCCCC3)[C@H]3C(=O)O[C@H](c4ccccc4)[C@H](c4ccccc4)N3[C@@H]2c2ccc(O)cc2)cc1", "GROUP LABEL": "0 (no)"}
{"MOLECULE": "COc1ccc([Si](C)(C)[C@@H]2[C@@H](CC(=O)N3Cc4ccccc4C[C@H]3CO)O[C@]3(C(=O)N(c4ccccc4)c4ccccc43)[C@H]2C)cc1", "GROUP LABEL": "0 (no)"}
{"MOLECULE": "CC(C)C(=C=CC[C@H](O)c1cccc(OCCO)c1)CCO", "GROUP LABEL": "0 (no)"}
{"MOLECULE": "CN1C(=O)C2C(C1=O)C1C=C(CCCO)C2C(c2cccs2)N1Cc1cc2c(cc1Br)OCO2 (stereo not given)", "GROUP LABEL": "0 (no)"}
{"MOLECULE": "CC(C)CNC(=O)[C@@H]1c2ccccc2C(=O)N(C2CCCCC2)[C@H]1c1ccc(CO)cc1", "GROUP LABEL": "0 (no)"}
{"MOLECULE": "CN(C)C(=O)[C@@]1(Cc2ccccc2)COC(c2ccc(OCCCO)cc2)=N1", "GROUP LABEL": "0 (no)"}
{"MOLECULE": "[N-]=[N+]=Nc1ccccc1C[C@]1(C(=O)O)N=C(c2ccc(OCCCO)cc2)O[C@H]1c1ccccc1N=[N+]=[N-]", "GROUP LABEL": "0 (no)"}
{"MOLECULE": "COc1ccc([Si](C)(C)[C@H]2[C@H](CC(=O)N3Cc4ccccc4C[C@H]3CO)O[C@@]3(C(=O)N(Cc4ccc(N5C(=O)c6cccc7cccc5c67)cc4)c4ccccc43)[C@@H]2C)cc1", "GROUP LABEL": "0 (no)"}
{"MOLECULE": "[N-]=[N+]=Nc1ccccc1C[C@]1(C(=O)O)N=C(c2ccc(OCCCO)cc2)O[C@H]1c1ccccc1", "GROUP LABEL": "0 (no)"}
{"MOLECULE": "COCCOC(=O)N1C(=O)[C@@]2(c3cc(C#CC4=CCCCC4)ccc31)[C@H](C(=O)N1CCCCCCC1)[C@H]1C(=O)O[C@H](c3ccccc3)[C@H](c3ccccc3)N1[C@@H]2c1ccc(OCCO)cc1", "GROUP LABEL": "0 (no)"}
{"MOLECULE": "C=C[C@@H](C)[C@H](O)c1ccc(OCCO)cc1", "GROUP LABEL": "0 (no)"}
{"MOLECULE": "C=C(C)[C@@H]1CC=C(C(O)C2C=CC3C(=O)N(c4ccccc4)C(=O)C3N2Nc2ccc(C#N)cc2)CC1 (stereo not given in full)", "GROUP LABEL": "0 (no)"}
{"MOLECULE": "CN(C)C(=O)[C@@]1(Cc2ccccc2N=[N+]=[N-])N=C(c2ccc(OCCCO)cc2)O[C@H]1c1ccccc1", "GROUP LABEL": "0 (no)"}
{"MOLECULE": "CCOC(=O)C1=CC[C@@H](c2ccccc2)N(S(=O)(=O)c2ccc(C)cc2)[C@H]1C=Cc1ccccc1", "GROUP LABEL": "0 (no)"}
{"MOLECULE": "O=C(NCC(O)CO)[C@@]1(CCS(=O)(=O)c2ccccc2)COC(c2ccc(OCCCO)cc2)=N1 (stereo not given in full)", "GROUP LABEL": "0 (no)"}
{"MOLECULE": "C=C[C@@H](C)[C@@H](OC(=O)Nc1ccc(SC)cc1)c1ccc(OCCO)cc1", "GROUP LABEL": "0 (no)"}
